Source listed as patent US8415469B2.

biological target: UniProt P04049
Sequence (P04049 whole entry): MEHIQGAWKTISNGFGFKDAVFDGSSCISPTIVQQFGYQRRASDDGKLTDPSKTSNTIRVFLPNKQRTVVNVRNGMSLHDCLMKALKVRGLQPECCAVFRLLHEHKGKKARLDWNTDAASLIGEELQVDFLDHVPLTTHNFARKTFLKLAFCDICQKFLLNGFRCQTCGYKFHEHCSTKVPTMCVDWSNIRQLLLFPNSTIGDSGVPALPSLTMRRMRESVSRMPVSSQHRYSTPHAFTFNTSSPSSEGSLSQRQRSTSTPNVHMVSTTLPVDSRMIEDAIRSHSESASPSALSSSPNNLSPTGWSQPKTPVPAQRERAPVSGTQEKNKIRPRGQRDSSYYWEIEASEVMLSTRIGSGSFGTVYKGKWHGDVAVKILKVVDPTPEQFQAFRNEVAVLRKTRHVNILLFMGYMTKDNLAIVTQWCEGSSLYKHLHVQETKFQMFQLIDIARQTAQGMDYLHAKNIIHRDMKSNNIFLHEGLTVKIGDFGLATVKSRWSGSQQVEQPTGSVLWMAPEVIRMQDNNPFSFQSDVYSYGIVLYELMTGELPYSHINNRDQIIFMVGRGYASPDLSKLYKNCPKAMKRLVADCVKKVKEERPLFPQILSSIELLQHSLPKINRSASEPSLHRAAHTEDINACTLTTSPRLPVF
pIC50: −log10 of the molar value.
Measured pIC50, listed per entry.
metric: pIC50

In [3]: df
Out[3]:
                                   compound  metric   value
0  CCCS(=O)(=O)Nc1ccc(F)c(C(=O)c2c[nH]c3ncc(-c4ccc(C(=O)N(C)C)cc4)cc23)c1F [Compound P-1547]   pIC50  ≥ 5.00
1  O=C(c1cccc(O)c1F)c1c[nH]c2ncc(-c3ccccc3)cc12 [Compound P-0036]   pIC50  ≥ 5.00
2  CCCS(=O)(=O)Nc1ccc(F)c(Cc2c[nH]c3ncc(-c4ccccc4)cc23)c1F [Compound P-0911]   pIC50  ≥ 5.00
3  CCCC(=O)Nc1ccc(F)c(C(=O)c2c[nH]c3ncc(-c4cccnc4)cc23)c1F [Compound P-1279]   pIC50  ≥ 5.00
4  CCCC(=O)Nc1ccc(F)c(C(=O)c2c[nH]c3ncc(Br)cc23)c1F [Compound P-1283]   pIC50  ≥ 5.00
5  O=C(c1c(F)ccc(NS(=O)(=O)c2ccccc2)c1F)c1c[nH]c2ncc(Br)cc12 [Compound P-0798]   pIC50  ≥ 5.00
6  CCCS(=O)(=O)Nc1ccc(F)c(C(=O)c2c[nH]c3ncc(-c4cccnc4)cc23)c1F [Compound P-0088]   pIC50  ≥ 5.00
7  COc1cc(Cc2c[nH]c3ncc(-c4ccsc4)cc23)cc(OC)c1 [Compound P-0613]   pIC50  ≥ 5.00

---

Entries with their measured IC50, system Kit (Homo sapiens, UniProt P10721):
metric: IC50

In [3]: df
Out[3]:
                                        mol  metric    value
0     COc1ccc(C(=O)c2c[nH]c3ncccc23)c(Cl)c1    IC50  ≤ 10 µM
1  O=C(c1cccc(C(F)(F)F)c1)c1c[nH]c2ncc(-c3cccnc3)cc12    IC50  ≤ 10 µM
2  NC(=O)c1ccc(-c2cnc3[nH]cc(C(=O)c4cccc(O)c4)c3c2)cc1    IC50  ≤ 10 µM
3  Cc1cc(C(=O)c2c[nH]c3ncc(-c4ccc(C(N)=O)cc4)cc23)n(C)n1    IC50  ≤ 10 µM

---

target: FGFR1 (Homo sapiens, UniProt P11362, C488A/C584S); construct: P1351.pET N6 BI-PTP FGFR A458-E765-X C488A, C584S; made in house; host or cells: E. coli (PTP1B co-expressed); experiment: AlphaScreen kinase assay, FGFR1; format: biochemical; settings: read-out: IC50, activity toward kinase FGFR
Sequence (P11362 458-765 C488A/C584S): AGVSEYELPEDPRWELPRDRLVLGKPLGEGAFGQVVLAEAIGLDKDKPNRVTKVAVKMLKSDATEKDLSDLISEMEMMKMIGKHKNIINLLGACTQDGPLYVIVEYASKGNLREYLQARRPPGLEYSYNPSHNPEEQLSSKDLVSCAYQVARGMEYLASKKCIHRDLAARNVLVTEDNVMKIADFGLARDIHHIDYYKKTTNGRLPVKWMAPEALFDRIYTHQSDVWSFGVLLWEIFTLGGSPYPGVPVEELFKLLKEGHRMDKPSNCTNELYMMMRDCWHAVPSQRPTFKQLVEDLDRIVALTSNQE
pIC50: −log10 of the molar value.
Entries and their pIC50 values follow.
metric: pIC50

                                   molecule                              assay_target   value
0  COc1cc(OC)cc(C(=O)c2c[nH]c3ncc(-c4ccccc4)cc23)c1  FGFR1 (Homo sapiens, UniProt P11362, C488A/C584S)  ≥ 5.00
1  COc1cccc(C(=O)c2c[nH]c3ncc(-c4cccc(N)c4)cc23)c1  FGFR1 (Homo sapiens, UniProt P11362, C488A/C584S)  ≥ 5.00
2  CCCS(=O)(=O)Nc1ccc(F)c(C(=O)c2c[nH]c3ncc(Br)cc23)c1F  FGFR1 (Homo sapiens, UniProt P11362, C488A/C584S)  ≥ 5.00
3  CS(=O)(=O)Nc1ccc(F)c(C(=O)c2c[nH]c3ncc(-c4cccnc4)cc23)c1F  FGFR1 (Homo sapiens, UniProt P11362, C488A/C584S)  ≥ 5.00
4  COCCOc1ccc(F)c(Cc2c[nH]c3ncc(Br)cc23)c1F  FGFR1 (Homo sapiens, UniProt P11362, C488A/C584S)  ≥ 5.00
5  c1cc(Cc2c[nH]c3ncccc23)cc(OCCOC2CCCCO2)c1 (centres unmarked)  FGFR1 (Homo sapiens, UniProt P11362, C488A/C584S)  ≥ 5.00
6  O=C(c1c(F)ccc(NS(=O)(=O)c2ccccc2)c1F)c1c[nH]c2nccc(Cl)c12  FGFR1 (Homo sapiens, UniProt P11362, C488A/C584S)  ≥ 5.00
7  O=S(=O)(NCc1c[nH]c2ncccc12)c1ccc(N2CCOCC2)nc1  FGFR1 (Homo sapiens, UniProt P11362, C488A/C584S)  ≥ 5.00

---

Measured IC50 by item
target: B-Raf (Homo sapiens); construct: purchased Upstate Biotechnology; assay: AlphaScreen kinase assay, B-Raf; format: biochemical; settings: read-out: IC50, activity toward kinase B-Raf
Sequence (P15056 whole entry): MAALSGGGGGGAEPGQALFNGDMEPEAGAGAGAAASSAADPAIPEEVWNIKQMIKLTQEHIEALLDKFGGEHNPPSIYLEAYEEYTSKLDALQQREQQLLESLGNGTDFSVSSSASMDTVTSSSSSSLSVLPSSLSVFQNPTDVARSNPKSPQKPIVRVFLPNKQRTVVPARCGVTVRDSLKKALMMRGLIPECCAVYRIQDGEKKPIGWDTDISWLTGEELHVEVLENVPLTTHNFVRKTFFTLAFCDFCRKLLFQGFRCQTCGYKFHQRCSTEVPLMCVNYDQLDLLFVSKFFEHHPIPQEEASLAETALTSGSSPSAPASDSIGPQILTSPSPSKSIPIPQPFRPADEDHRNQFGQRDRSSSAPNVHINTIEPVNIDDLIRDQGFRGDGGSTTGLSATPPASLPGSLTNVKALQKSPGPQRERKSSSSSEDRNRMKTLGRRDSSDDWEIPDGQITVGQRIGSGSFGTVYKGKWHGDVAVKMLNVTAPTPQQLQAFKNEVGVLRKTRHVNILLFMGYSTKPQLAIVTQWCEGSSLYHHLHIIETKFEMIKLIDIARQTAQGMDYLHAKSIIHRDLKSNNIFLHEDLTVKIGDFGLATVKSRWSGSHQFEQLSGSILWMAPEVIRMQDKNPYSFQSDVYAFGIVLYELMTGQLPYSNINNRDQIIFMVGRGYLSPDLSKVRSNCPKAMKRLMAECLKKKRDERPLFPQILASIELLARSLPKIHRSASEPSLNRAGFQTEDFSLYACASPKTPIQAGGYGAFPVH
metric: IC50

>>> df
                                   compound  metric    value
0  Cn1cc(C(F)(F)F)c(-c2ccc(S(=O)(=O)NCc3c[nH]c4ncccc34)s2)n1 [Compound P-0041]    IC50  ≤ 10 µM
1  COC(c1ccc(N(Cc2ccc(Cl)cc2)C(=O)OC(C)(C)C)nc1)c1c[nH]c2ncc(Br)cc12 (centres unmarked) [Compound P-0779]    IC50  ≤ 10 µM
2  CC(C)c1ccc(S(=O)(=O)Nc2ccc(F)c(C(=O)c3c[nH]c4ncc(Cl)cc34)c2F)cc1 [Compound P-1839]    IC50  ≤ 10 µM
3  CCCCNC(=O)Nc1cccc(C(=O)c2c[nH]c3ncc(-c4cccnc4)cc23)c1Cl [Compound P-1828]    IC50  ≤ 10 µM
4  CN(C)c1cccc(Nc2ccnc3[nH]ccc23)c1 [Compound P-0861]    IC50  ≤ 10 µM
5  O=C(c1cc(O)ccc1F)c1c[nH]c2ncc(-c3cccs3)cc12 [Compound P-0032]    IC50  ≤ 10 µM
6  CCCS(=O)(=O)Nc1ccc(F)c(C(=O)c2c[nH]c3ncc(N4CCC(C)CC4)cc23)c1F [Compound P-0860]    IC50  ≤ 10 µM
7  CS(=O)(=O)Nc1ccc(F)c(C(=O)c2c[nH]c3ncc(-c4cccnc4)cc23)c1 [Compound P-0079]    IC50  ≤ 10 µM

---

molecular target: FGFR1 (Homo sapiens, UniProt P11362, C488A/C584S); construct: P1351.pET N6 BI-PTP FGFR A458-E765-X C488A, C584S; made in house; host or cells: E. coli (PTP1B co-expressed); test: AlphaScreen kinase assay, FGFR1; format: biochemical; conditions: read-out: IC50, activity toward kinase FGFR
metric: IC50

>>> df
                                        mol                              assay_target  metric    value
0    c1csc(CNc2ccc(Cc3c[nH]c4ncccc34)cn2)c1  FGFR1 (Homo sapiens, UniProt P11362, C488A/C584S)    IC50  ≤ 10 µM
1  O=C(c1cc(F)ccc1F)c1c[nH]c2ncc(-c3cccnc3)cc12  FGFR1 (Homo sapiens, UniProt P11362, C488A/C584S)    IC50  ≤ 10 µM
2         CC(=O)c1cccc(Nc2cnc3[nH]ccc3c2)c1  FGFR1 (Homo sapiens, UniProt P11362, C488A/C584S)    IC50  ≤ 10 µM
3  O=C(c1cccc(O)c1)c1c[nH]c2ncc(-c3cccs3)cc12  FGFR1 (Homo sapiens, UniProt P11362, C488A/C584S)    IC50  ≤ 10 µM
4  O=C(c1cc(O)ccc1F)c1c[nH]c2ncc(-c3ccccc3)cc12  FGFR1 (Homo sapiens, UniProt P11362, C488A/C584S)    IC50  ≤ 10 µM

---

pIC50: −log10 of the molar value.
For Yes (Homo sapiens, UniProt P07947), measured pIC50 is reported for the entries below.
metric: pIC50

>>> print(df.to_string())
                                   compound   value
0  O=C(c1ccc(NCc2cccc(F)c2)nc1)c1c[nH]c2ncccc12 [Compound P-0327]  ≥ 5.00
1  Nc1cccc(-c2ccnc3[nH]cc(C(=O)c4cc(F)ccc4F)c23)c1 [Compound P-0046]  ≥ 5.00
2  CS(=O)(=O)Nc1ccc(F)c(C(=O)c2c[nH]c3ncc(Br)cc23)c1F [Compound P-0162]  ≥ 5.00
3  Nc1cccc(-c2ccnc3[nH]cc(C(=O)c4cccc(Cl)c4Cl)c23)c1 [Compound P-0075]  ≥ 5.00
4  Cc1ccc(F)cc1C(=O)c1c[nH]c2nccc(-c3cccc(NS(C)(=O)=O)c3)c12 [Compound P-0124]  ≥ 5.00
5  O=C(c1cccc(O)c1)c1c[nH]c2ncc(Br)cc12 [Compound P-0019]  ≥ 5.00
6  Oc1ccc(F)c(Cc2c[nH]c3ncc(Br)cc23)c1F [Compound P-0122]  ≥ 5.00
7  O=C(c1cc(O)ccc1F)c1c[nH]c2ncc(-c3ccccc3)cc12 [Compound P-0045]  ≥ 5.00
8  Cc1cc(C)cc(-c2ccnc3[nH]cc(C=O)c23)c1 [Compound P-0031]  ≥ 5.00
